Values from the nanobody polyreactivity screen of Harvey et al. (2022)

Experiment: yeast display, Sf9 membrane polyspecificity reagent, FACS + sequencing; frameworks hold sequencing errors

sequenceCode: QVQLVESGGGLVQAGGSLRLTCAASGRIFLYYTMGWYRQAPGKERELVAAITRSGGSTYYADSVKGRFTISRDNAKNTVYLQMNSLKPEDTAVYYCKRAYVRYVPMNYWGQGTQVTLSS
polyreactivity (PSR sort gate): high polyreactivity
--
sequenceCode: QVQLVESGGGLVQAGGSLRLSCAASGRTFVSYVMGWYRQAPGKERELVAAIDQSGDRTYYPDSVKGRFTISRDNAKNTVYLQMNSLKPEDTAVYYCASRWGYSSRPYYYWGQGTQVTVSS
polyreactivity (PSR sort gate): high polyreactivity
--
sequenceCode: QVQIVESGGGLVQAGGSLRVSCAASGITFGNYDMGWYRQAPGKERELVAAITGSGGRTYYADSVKGRFTISRDNEKNTVYLQMNSLKPEDTAVYYCNRRQYGRKKQYDYWGQGTQVTVSS
polyreactivity (PSR sort gate): high polyreactivity
